system: SN12C renal; assay: NCI tumour cell line growth inhibition, 48 h
Parameter: TGI. Scope: all listed entries.

Known results for compounds:
>>> df
                                   compound    result
0  CCc1nn(S(=O)(=O)c2ccc(C)cc2)c2c1CS(=O)(=O)CC2  > 100 µM
1  COC(=O)c1nc(-c2ccc3c(n2)C(=O)C(N)=C(OC)C3=O)c(N)c(-c2ccc(OC)c(OC)c2O)c1C   2.69 µM
2      Cn1c(-c2ccc[se]2)ccc1-c1ccc(CO)[se]1  > 100 µM

Request: Given the entry "CCOP(=O)(OCC)/C(=C\N1C(=O)CC(=O)NC1=S)C(=O)OC" , report its measured TGI.
Response: > 100 µM

Request: Given the entry O=c1[nH]c(=O)n(C2CC(O)C(CO)O2)cc1C(OCC(F)(F)F)OCC(F)(F)F (stereo not drawn) , report its measured TGI.
Response: > 100 µM

Source listed as PubChem BioAssay (NCI).
